system: MDA-MB-435
Outcomes: active, inactive

Nc1nc(Nc2ccc3c(c2)CC[C@@H](N2CCCC2)CC3)nn1-c1cc2c(nn1)-c1ccccc1CCC2: inactive
COc1ccc(CNc2nc3cc(N)cc(N)c3nc2-c2ccccc2)cc1OC: inactive
N#CC1=C(N)OC2=C(COc3ccc(F)cc32)C1c1ccc(Cl)cc1 (centres undefined): inactive
O=C(c1cc(F)c(Cl)cc1Cl)N1N=C(c2ccccc2)CC1(O)c1ccccc1 (centres undefined): inactive
O=C(Nc1ccc(-n2cc(-c3ccncc3)c(-c3ccc(O)c(Cl)c3)n2)cc1)c1cc(Cl)cc(Cl)c1: inactive
N=C1c2nc3n(c2C(=O)c2nc4n(c21)CCCC4)CCCC3: active
Cc1cc(C)c(O)c(CNCCCCCCNCc2cc(C)cc(C)c2O)c1: inactive
CCCCCCCCCNCCCCCCCCC: inactive
O=[N+]([O-])c1ccc(-c2nc(N(CCO)CCO)c3ccccc3n2)o1: active

---

The following compounds are listed with their measured TGI values.
system: COLO 205 colon; test: NCI tumour cell line growth inhibition, 48 h
measuredQuantity: TGI (µM)

COc1cc2c(cc1OC)C1=Cc3ccc(OC)c(OC)c3C(C#N)N1CC2 (stereo not given): 43.8
OCCN1CN(c2nc(N3CN(CCO)C3)nc(N3CN(CCO)C3)n2)C1: 59.2
CN(C)Cc1cc(C(C)(C)C)cc(CNC2CCCCC2)c1O: 33.3
CC(=O)Nc1ccc(N2C(=O)CS(=O)(=O)C2c2cccc(Oc3ccccc3)c2)cc1 (stereo not given): 35.7

---

tested on: MOLT-4 leukemia; assay: NCI tumour cell line growth inhibition, 48 h; in the data active means GI50 below about 0.43 µM; inactive means the rest
Outcomes: true (1) = active, false (0) = inactive

O=C(Nc1ccc(-n2cc(-c3ccncc3)c(-c3ccc(Cl)c(O)c3)n2)cc1)Nc1cc(C(F)(F)F)cc(C(F)(F)F)c1: false (0)
COC(=O)COc1ccc(/C=C2\N=C(c3ccccc3)N(c3cc(C(F)(F)F)ccc3Cl)C2=O)cc1: false (0)
Cc1cc(C)c(O)c(CNCCCCCCNCc2cc(C)cc(C)c2O)c1: false (0)
COC1/C=C\C=C(/C)C(=O)Nc2cc3nc4ccc(Br)cc4oc-3c(c2=O)CC(C)CC(OC)C(O)C(C)/C=C(\C)C1OC(N)=O (centres undefined): true (1)

---

The following compounds are listed with their measured TGI values.
tested on: HOP-62 NSCLC; test: NCI tumour cell line growth inhibition, 48 h
measuredQuantity: TGI

CCOC(=O)CN=C1Nc2ccccc2C(=O)N2CSCC12 (configuration not stated): > 100 µM
COc1ccc(C2=NN(C(=O)COc3ccc(Cl)cc3)C(O)(c3cc(F)c(Cl)cc3Cl)C2)cc1OC (configuration not stated): 30.8 µM
CCCCCCCCCNCCCCCCCCC: 3.38 µM
CC(=O)c1cc2c(s1)C(=O)c1scc(C(C)=O)c1C2=O: 1.97 µM
[N-]=[N+]=NC1=NNC2(C(=O)N1)c1ccccc1-c1ccccc12: > 100 µM
Clc1ccc(-n2nnc(C3=NCCCN3)c2-c2ccccc2)cc1: > 100 µM
N#CC1=C(N)N=C(N2CCCCC2)C(C#N)C12Nc1ccccc1S2 (configuration not stated): > 100 µM
NC(CCl)=NC1CN2CCC1CC2 (configuration not stated): > 100 µM
CC(=O)OC(CC(C)C)P1(=O)N(CC(C)(C)C)[C@@H]2CCCC[C@H]2N1CC(C)(C)C (some centres not stated): 29.9 µM
CC(C)(C)OC(=O)NC1CCCC1C(O)(C1=CCCC1)C1=CCCC1 (configuration not stated): > 100 µM
CCN(CC)c1ccc(/C=c2\nc(-c3ccccc3)n3c2nc2ccccc23)cc1: 68.6 µM
Fc1ccc(C2NC(=S)NC3=C2CCOc2c3ccc3ccccc23)cc1 (configuration not stated): > 100 µM
c1ccc2[nH]c(SSc3nc4ncncc4[nH]3)nc2c1: > 100 µM
O=C(CCCC1Cc2ccccc2C1=O)c1ccccc1 (configuration not stated): > 100 µM
C/C=C1\CN2CCC34c5ccccc5N(C)C35OCC4(C(=O)OC)C1CC25 (configuration not stated): > 100 µM
CCOC(=O)Cc1csc(/N=C2\NC(=O)/C(=C3\C(=O)N(C)c4ccccc43)S2)n1: 87.9 µM
c1nncn1C12C3C4C5C3C1C5C42 (configuration not stated): > 100 µM
CCOC(=O)CCCn1c(SC)nc2cc(-c3ccco3)[nH]c2c1=O: > 100 µM
CC([C@H]1CCC2C3CCC4C[C@@H](NC=O)CC[C@]4(C)C3CC[C@@]21C)N(C)C (some centres not stated): 5.19 µM
O=C(O)CS(=O)c1ccc2c3c(cccc13)C(=O)c1ccccc1-2 (configuration not stated): > 100 µM
O=S(=O)(O)c1ccc2c(N=Nc3ccccc3)c(O)c(S(=O)(=O)O)cc2c1: > 100 µM
Cc1cc(O)c(C(=O)CC2(O)C(=O)Nc3c(Cl)cc(Cl)cc32)c(=O)o1 (configuration not stated): > 100 µM

---

test system: M14 melanoma; test: NCI tumour cell line growth inhibition, 48 h
measuredQuantity: TGI (nM)

Cc1cccc(/C=N/NC(=S)N2CCCCCC2)n1: 441
C=C1C[C@@H]2C/C=C/C(=O)C/C(C)=C\C=C\C(=O)O[C@H](C=O)C/C(C)=C/[C@H](C1)O2: 738

---

The following molecules are listed with their measured TGI values.
test system: MCF7 breast; experiment: NCI tumour cell line growth inhibition, 48 h
measuredQuantity: TGI (µM)

CC(=O)OC(CC(C)C)P1(=O)N(CC(C)(C)C)[C@@H]2CCCC[C@H]2N1CC(C)(C)C (stereo not given in full): 17.4
Cc1ccc(S(=O)(=O)N(CC(O)c2ccccc2)c2ccccc2F)cc1 (stereo not given): 28

---

test system: UO-31 renal; experiment: NCI tumour cell line growth inhibition, 48 h; in the data active means GI50 below about 0.43 µM; inactive means the rest
Outcomes: TRUE (active), FALSE (inactive)

COc1ccc2c(c1)nc(N)c1c3cc(OC)c(OC)cc3cn21: FALSE
COc1cc(NC(=O)c2cc(OC)c3ccn(C)c3c2)cc2c1C[C@]1(C)CC[C@@H](O)C(C)(C)[C@H]1O2: FALSE
CC([C@H]1CCC2C3CCC4C[C@@H](NC=O)CC[C@]4(C)C3CC[C@@]21C)N(C)C (stereo partly drawn): FALSE
CCC1=C[C@@H]2CN(C1)Cc1c([nH]c3ccccc13)[C@@](C(=O)OC)(c1cc3c(cc1OC)N(C=O)[C@H]1[C@@](O)(C(=O)OC)[C@H](OC(C)=O)[C@]4(CC)[C@@H]5C[C@@H]5CN5CC[C@]31[C@@H]54)C2: TRUE
c1ccc2[nH]c(SSc3nc4ncncc4[nH]3)nc2c1: FALSE
Cn1ccc2c(NCCN)c3c(c(NCCN)c21)C(=O)c1ccccc1C3=O: FALSE
CCCCCNC(=O)[C@@H]1CCCN2C(=O)CC[C@H](NC(=O)[C@H](Cc3ccc(OP(=O)(O)O)cc3)NC(C)=O)C(=O)N12: FALSE
CCN1C(=O)N(CC)C2C1NN=c1s/c(=C3\C(=O)N(CC(C)C)c4ccccc43)c(=O)n12 (stereo not drawn): FALSE

---

system: PC-3 prostate; assay: NCI tumour cell line growth inhibition, 48 h
measuredQuantity: TGI

O=C1C=C(N2CCCC2)C(=O)c2c(O)ccc(O)c21: > 10 µM
O=[N+]([O-])c1ccc(-c2nc(N(CCO)CCO)c3ccccc3n2)o1: 2.84 µM
Cc1cc(C)c(O)c(CNCCCCCCNCc2cc(C)cc(C)c2O)c1: 4.28 µM
COc1cc2c(cc1OC)C1=Cc3ccc(OC)c(OC)c3C(C#N)N1CC2 (configuration not stated): > 100 µM
O=C(O)CS(=O)c1ccc2c3c(cccc13)C(=O)c1ccccc1-2 (configuration not stated): > 100 µM
[N-]=[N+]=NC1=NNC2(C(=O)N1)c1ccccc1-c1ccccc12: > 100 µM
CC1(CCc2ccccc2)CC1(Br)Br (configuration not stated): > 100 µM
CC1(C)C2CCC1(C)C(N/C(=C(/C(Cl)=C(Cl)Cl)[N+](=O)[O-])n1nnc3ccccc31)C2 (configuration not stated): 48.3 µM
COC(=O)C1=COC(C)C2C[n+]3ccc4c([nH]c5ccccc54)c3CC12 (configuration not stated): > 100 µM
NC(Cc1ccccc1)=NCC(=O)O: > 100 µM
Cc1ccc(C(=O)Cc2nc3ncccc3[nH]c2=O)cc1: > 100 µM
CN(NC(=O)CC(=O)NN(C)C(=S)c1ccccc1)C(=S)c1ccccc1: > 100 µM
CC(=O)OC(CC(C)C)P1(=O)N(CC(C)(C)C)[C@@H]2CCCC[C@H]2N1CC(C)(C)C (some centres not stated): 13.6 µM
COc1ccc(C[C@H]2NC(=O)/C=C/C[C@@H]([C@H](C)[C@H]3O[C@@H]3c3ccccc3)OC(=O)[C@H](CC(C)C)OC(=O)[C@H](C)CNC2=O)cc1: > 0.0001 µM
N=C1c2nc3n(c2C(=O)c2nc4n(c21)CCCC4)CCCC3: > 100 µM
CC(C)(C)OC(=O)NC1CCCC1C(O)(C1=CCCC1)C1=CCCC1 (configuration not stated): > 100 µM
CC(C)=NNc1cnnc2ccc([N+](=O)[O-])cc12: > 100 µM
NNC(=O)Cc1cccnc1: > 100 µM
CCOC(=O)c1[nH]cnc1/N=N/N(C)N: > 100 µM
C[C@]12CC[C@H](O)CC1=CC[C@@H]1C2CC[C@]2(C)c3nn(-c4ccc(F)cc4)nc3CC12 (some centres not stated): > 100 µM
CCCCCCCCCNCCCCCCCCC: 4.7 µM
Cc1cccc(C)c1NC(=O)/C(Cl)=C(/Cl)C(=O)O: 50.4 µM

These entries and their values trace back to PubChem BioAssay (NCI).
